target: pEGFR, A431 cells (wildtype EGFR) (Homo sapiens); construct: pEGFR (Tyr1068) TR-FRET; experiment: Cellular EGFR phosphorylation assay (LANCE Ultra TR-FRET) in A431 cells; type: cell-based; conditions: 4 hours at 37° C., 40 ng/mL EGF for the final 10 minutes, read-out: A431 pEGFR IC50
Sequence (P00533 25-1210): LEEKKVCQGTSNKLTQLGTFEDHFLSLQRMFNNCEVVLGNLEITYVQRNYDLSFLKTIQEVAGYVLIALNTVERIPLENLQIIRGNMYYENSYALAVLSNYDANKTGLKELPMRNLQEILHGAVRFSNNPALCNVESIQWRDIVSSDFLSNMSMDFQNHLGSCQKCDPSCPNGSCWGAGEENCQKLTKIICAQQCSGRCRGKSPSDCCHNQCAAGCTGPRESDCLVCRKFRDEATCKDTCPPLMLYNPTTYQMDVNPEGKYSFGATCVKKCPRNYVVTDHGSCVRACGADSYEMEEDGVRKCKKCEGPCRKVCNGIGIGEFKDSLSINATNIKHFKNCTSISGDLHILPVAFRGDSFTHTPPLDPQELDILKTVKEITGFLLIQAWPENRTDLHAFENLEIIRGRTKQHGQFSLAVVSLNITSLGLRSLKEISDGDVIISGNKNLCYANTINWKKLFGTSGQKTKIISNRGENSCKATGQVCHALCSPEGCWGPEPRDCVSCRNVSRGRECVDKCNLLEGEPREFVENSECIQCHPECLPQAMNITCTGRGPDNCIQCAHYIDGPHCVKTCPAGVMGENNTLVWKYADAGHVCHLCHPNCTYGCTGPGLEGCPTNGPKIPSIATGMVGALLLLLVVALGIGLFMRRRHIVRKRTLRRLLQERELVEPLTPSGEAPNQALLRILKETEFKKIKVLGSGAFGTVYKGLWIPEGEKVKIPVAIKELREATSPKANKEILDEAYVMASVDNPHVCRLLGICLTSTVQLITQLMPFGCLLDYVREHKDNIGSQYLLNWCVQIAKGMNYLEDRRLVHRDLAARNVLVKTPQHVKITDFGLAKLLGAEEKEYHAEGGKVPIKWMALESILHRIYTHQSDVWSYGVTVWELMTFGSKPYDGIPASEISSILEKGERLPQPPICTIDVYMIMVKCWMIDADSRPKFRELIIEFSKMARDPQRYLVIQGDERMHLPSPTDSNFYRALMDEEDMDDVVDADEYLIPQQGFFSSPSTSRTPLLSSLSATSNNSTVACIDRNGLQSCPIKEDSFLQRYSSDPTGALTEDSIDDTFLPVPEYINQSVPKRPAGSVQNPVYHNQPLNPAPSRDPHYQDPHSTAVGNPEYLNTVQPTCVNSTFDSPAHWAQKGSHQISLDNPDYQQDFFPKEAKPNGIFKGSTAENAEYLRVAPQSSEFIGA
metric name: pIC50
Bear in mind: pIC50 is minus log10 of a mol/L concentration; give just that figure.

# query: pIC50 of entry `CCOc1nn([C@@H](C)CO)c2c1/C=C/c1n[nH]c3cnc(cc13)-c1c(CC)nn(C)c1O[C@@H](C)CN(C)C2`
7.61

# query: pIC50 of entry `CCOc1nn(CCO)c2c1/C=C/c1n[nH]c3c(C)nc(cc13)-c1c(C)nn(C)c1O[C@@H](C)CN(C)C2`
7.82

# query: pIC50 of entry `CCOc1nn([C@@H](C)CO)c2c1/C=C/c1n[nH]c3cnc(cc13)-c1c(C)nn(C)c1O[C@@H](C)CN(C1CC1)C2`
8.85

# query: pIC50 of entry `CCOc1nn([C@@H](C)CO)c2c1/C=C/c1n[nH]c3cnc(cc13)-c1c(C)nn(C)c1OC[C@@H](C)N(C1CC1)C2`
8.84

---

Biological target: EGFR (D746-750/C797S) (Homo sapiens, UniProt P00533, C797S/DEL746-750)
Sequence (P00533 with tags, fused parts or gaps DEL746-750/C797S): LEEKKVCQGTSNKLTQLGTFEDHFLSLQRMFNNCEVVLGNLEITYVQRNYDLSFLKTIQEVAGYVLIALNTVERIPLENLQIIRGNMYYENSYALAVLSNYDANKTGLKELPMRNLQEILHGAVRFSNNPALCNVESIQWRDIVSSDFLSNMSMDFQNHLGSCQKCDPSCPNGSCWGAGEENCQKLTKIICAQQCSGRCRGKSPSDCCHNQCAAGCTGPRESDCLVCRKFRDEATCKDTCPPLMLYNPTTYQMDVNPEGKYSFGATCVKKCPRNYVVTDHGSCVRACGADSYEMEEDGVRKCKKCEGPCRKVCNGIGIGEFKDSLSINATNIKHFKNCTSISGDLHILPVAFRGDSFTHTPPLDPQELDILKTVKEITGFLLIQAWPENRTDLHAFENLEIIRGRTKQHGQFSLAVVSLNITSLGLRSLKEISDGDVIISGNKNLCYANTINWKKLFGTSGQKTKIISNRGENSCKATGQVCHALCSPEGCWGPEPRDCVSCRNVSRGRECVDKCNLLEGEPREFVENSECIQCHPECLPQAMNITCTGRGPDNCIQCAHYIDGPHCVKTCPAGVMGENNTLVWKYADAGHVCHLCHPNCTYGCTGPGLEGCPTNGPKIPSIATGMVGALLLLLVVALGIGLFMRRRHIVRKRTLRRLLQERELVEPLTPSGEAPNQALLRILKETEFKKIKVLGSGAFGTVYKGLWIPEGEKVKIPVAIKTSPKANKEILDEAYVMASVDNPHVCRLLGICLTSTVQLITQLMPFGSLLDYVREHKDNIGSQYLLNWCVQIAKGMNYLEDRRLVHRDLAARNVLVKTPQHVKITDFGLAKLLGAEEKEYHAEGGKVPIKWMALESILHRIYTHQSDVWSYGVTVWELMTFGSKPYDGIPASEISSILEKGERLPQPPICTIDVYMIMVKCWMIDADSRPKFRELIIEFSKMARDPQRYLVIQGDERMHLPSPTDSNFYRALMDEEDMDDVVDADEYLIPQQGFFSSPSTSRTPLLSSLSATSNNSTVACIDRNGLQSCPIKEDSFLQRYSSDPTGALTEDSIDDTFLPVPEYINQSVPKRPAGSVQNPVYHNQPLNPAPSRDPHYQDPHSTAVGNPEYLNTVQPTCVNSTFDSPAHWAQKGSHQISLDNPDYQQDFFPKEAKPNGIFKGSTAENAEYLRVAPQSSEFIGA
Test: HotSpot radiometric kinase assay, inhibition of EGFR 746-750/C797S mutant
Conditions: 33P ATP, room temperature, 120 m
Procedure: Biochemical Assays for inhibition of wild-type and mutant EGFRs Briefly, specific kinase/substrate pairs along with required cofactors were prepared in reaction buffer; 20 mM HEPES pH 7.5, 10 mM […], 1 mM EGTA, 0.02% Brij35, 0.02 mg/ml BSA, 0.1 mM Na3VO4, 2 mM DTT, 1% DMSO. […]
metric name: pIC50
Bear in mind: pIC50 is minus log10 of a mol/L concentration; give just that figure.

# query: pIC50 of entry `CC(C)Oc1nn(CCO)c2c1/C=C/c1n[nH]c3cnc(cc13)-c1cnn(C)c1O[C@H](C)CN(C(C)C)C2`
8.81

# query: pIC50 of entry `CCOc1nn(CCO)c2c1/C=C/c1n[nH]c3cnc(cc13)-c1cnn(C)c1O[C@@H](C)CN(CC)C2`
9.51

# query: pIC50 of entry `CCOc1nn([C@@H](C)CO)c2c1/C=C/c1n[nH]c3cnc(cc13)-c1c(C)nn(C)c1O[C@@H](C)[C@H]1CCCN1C2`
8.95

# query: pIC50 of entry `CCc1nn([C@@H](C)CO)c2c1/C=C/c1n[nH]c3cnc(cc13)-c1c(C)nn(C)c1O[C@@H](C)CN(C)C2`
8.98

# query: pIC50 of entry `CCN1Cc2c(c(OCC#N)nn2CCO)/C=C/c2n[nH]c3cnc(cc23)-c2c(C)nn(C)c2O[C@H](C)C1`
9.54

# query: pIC50 of entry `CCOc1nn(CCO)c2c1/C=C/c1n[nH]c3cnc(cc13)-c1c(C)nn(C)c1OC[C@H](C)N(CC)C2`
8.84

# query: pIC50 of entry `Cc1nn(CCO)c2c1/C=C/c1n[nH]c3cnc(cc13)-c1c(C)nn(C)c1O[C@@H](C)CN(C(C)C)C2`
9.08

Source of measurements: patent US20260317344A1
